System: RPMI-7272 human melanoma cells
Test: In vitro RPMI-7272 human melanoma cell growth inhibition
Format: cell-based
Conditions: RPMI-7272 melanoma, inhibition of cell doublings by 50%, 72 h, read-out: ID50 (the source's name)
For each of the compounds below, state its log10(IC50).
Plainly stated, the numbers are log10 of IC50 given in µg/mL.

INSERT INTO results (compound, recorded_value) VALUES
  ('Nc1nc(-c2cccc3ccccc23)cc2cc(Cl)ccc12 [Example 19]', -1.26);

Batch request: log10(IC50) per item, same order as input.
1. Cc1ccc2c(N)nc(-c3cccc4ccccc34)cc2c1 [Example 20]
2. Cc1ccc2cc(-c3cccc4ccccc34)[nH]c(=O)c2c1 [Example 3]
3. Cc1cccc2cc(-c3cccc4ccccc34)nc(N)c12 [Example 24]
4. Cc1ccc2cc(-c3cccc4ccccc34)nc(N)c2c1 [Example 22]
5. Nc1nc(-c2cccc3ccccc23)cc2ccccc12 [Example 16]
6. Cc1cccc2c(=O)[nH]c(-c3cccc4ccccc34)cc12 [Example 7]
7. CN(C)c1ccc2cc(-c3cccc4ccccc34)[nH]c(=O)c2c1.Cl [Example 4]

[-3.11, -2.14, -1.30, -2.80, -0.66, -0.54, -3.00]

Batch request: log10(IC50) per item, same order as input.
1. Nc1nc(-c2cccc3ccccc23)cc2ccc(Cl)cc12 [Example 21]
2. Cc1cccc2cc(-c3cccc4ccccc34)[nH]c(=O)c12 [Example 15]

1. -2.03
2. -0.28
